Recorded melting point values for a group of compounds are listed next.

| compound | melting point |
| --- | --- |
| COCOc1ccc([C@H]2Oc3ccccc3C[C@@H]2O)cc1 | 97 to 98 °C |

Recorded melting point (compound Cc1cc(C)cc([C@H]2Oc3ccccc3C[C@@H]2O)c1 ): 135 to 136 °C

The compound listed as O[C@H]1Cc2ccccc2O[C@@H]1c1ccc2ccccc2c1 has a reported melting point of 141 to 142 °C

Sure, the documented melting point for COCOc1ccc2c(c1)C=C[C@H](c1ccccc1)O2 is 69 to 70 °C

Noted for O[C@H]1Cc2cc(Cl)ccc2O[C@@H]1c1ccc(Cl)cc1 : its melting point reads 138 to 139 °C

Entry C1=C[C@H](c2ccc(OCc3ccccc3)cc2)Oc2ccccc21 [1d, (R)-2-(4-(benzyloxy)phenyl)-2H-chromene] , melting point reported as 92 to 93 °C

Please fill in: melting point reported for COc1cccc2c1C[C@H](O)[C@@H](c1ccccc1)O2 = 116 to 117 °C

Noted for Cc1ccc2c(c1)C[C@H](O)[C@@H](c1ccccc1)O2 : its melting point reads 109 to 110 °C

Just so you know, measured melting point for Cc1cccc([C@H]2Oc3ccccc3C[C@@H]2O)c1 came out at 88 to 89 °C

Record summary for Cc1ccccc1[C@H]1Oc2ccccc2C[C@@H]1O : reported melting point = 91 to 92 °C

For record O[C@H]1Cc2ccccc2O[C@@H]1c1ccc(Cl)cc1 the listed melting point is 109 to 110 °C

Record O[C@H]1Cc2ccccc2O[C@@H]1c1ccc(Br)cc1 , field melting point: 109 to 110 °C

Recorded melting point (compound O[C@H]1Cc2ccccc2O[C@@H]1c1ccc(OCc2ccccc2)cc1 ): 113 to 114 °C

melting point recorded for this compound, O[C@H]1Cc2ccccc2O[C@@H]1c1ccco1 , is 80 to 81 °C

* * *

measured-property: melting point

| compound | melting point |
| --- | --- |
| O[C@H]1Cc2cc(Cl)ccc2O[C@@H]1c1ccccc1 [3ae, (2R,3S)-6-chloro-2-phenylchroman-3-ol] | 130 to 131 °C |
| COc1ccc2c(c1)C[C@H](O)[C@@H](c1ccccc1)O2 [3x, (2R,3S)-6-methoxy-2-phenylchroman-3-ol] | 118 to 119 °C |
| Oc1ccc2c(c1)C[C@H](O)[C@@H](c1ccccc1)O2 [3ac, (2R,3S)-2-phenylchromane-3,6-diol] | 187 to 188 °C |

For this compound ( Cc1cccc2c1C[C@H](O)[C@@H](c1ccccc1)O2 [3q, (2R,3S)-5-methyl-2-phenylchroman-3-ol] ), measured melting point is 116 to 117 °C

* * *

Below is a list of entries, each paired with its recorded melting point value.

Solved entries (count: 7):
| molecule | melting point |
| --- | --- |
| Oc1ccc2c(c1)C=C[C@H](c1ccccc1)O2 [1ac, (R)-2-phenyl-2H-chromen-6-ol] | 81 to 82 °C |
| COc1cccc2c1O[C@H](c1ccccc1)[C@@H](O)C2 | 151 to 152 °C |
| O[C@H]1Cc2ccccc2O[C@@H]1c1ccc(C(F)(F)F)cc1 | 114 to 115 °C |
| O[C@H]1Cc2cc(Cl)cc(Cl)c2O[C@@H]1c1ccccc1 | 126 to 127 °C |
| COc1ccc([C@H]2Oc3ccccc3C[C@@H]2O)cc1 | 89 to 90 °C |
| Cc1ccc([C@H]2Oc3ccccc3C[C@@H]2O)cc1 | 68 to 69 °C |
| Cc1cc(C)c2c(c1)O[C@H](c1ccccc1)[C@@H](O)C2 | 149 to 150 °C |

Turning now to a further molecule:
melting point recorded for this molecule, O[C@H]1Cc2ccccc2O[C@@H]1c1ccc(F)cc1 , is 99 to 100 °C
